- protocolText: Inhibition of recombinant mouse GALK1 using ATP as substrate incubated for 1 hr and measured by Kinase-Glo assay
- setupConditions: read-out: IC50
Threshold 9 µM: IC50 strictly smaller gives label 1, otherwise label 0.

{"columns": ["compound", "answerLabel"],
 "data": [
  ["COc1ccc2nc(NC3=NC(c4ccccc4Cl)C(C(=O)Nc4nnc(-c5cccnc5)s4)=C(C)N3)oc2c1 (configuration not stated)", "label 0"],
  ["COC(=O)c1ccccc1CNC(=O)C1=C(C)NC(Nc2nc3ccccc3o2)=NC1c1ccccc1Cl (configuration not stated)", "label 1"],
  ["CC1=C(C(=O)Nc2cc(C(=O)O)ccn2)C(c2ccccc2Cl)N=C(Nc2nc3cccc(F)c3o2)N1 (configuration not stated)", "label 1"],
  ["CC(C)CC1=C(C(=O)Nc2nncs2)C(c2ccccc2Cl)N=C(Nc2nc3ccccc3o2)N1 (configuration not stated)", "label 0"],
  ["COc1ccc(Cl)c(C2N=C(Nc3nc4ccccc4o3)NC(C)=C2C(=O)Nc2nncs2)c1 (configuration not stated)", "label 0"],
  ["COC(=O)c1csc(NC(=O)C2=C(C)NC(Nc3nc4ccccc4o3)=NC2c2ccccc2Cl)n1 (configuration not stated)", "label 0"],
  ["CC1=C(C(=O)Nc2cc(C(=O)O)ccn2)C(c2ccc(Br)cc2Cl)N=C(Nc2nc3ccc(F)cc3o2)N1 (configuration not stated)", "label 1"]
]}
